Target: human FAK (Homo sapiens (Human), UniProt Q05397)
Sequence (Q05397 whole entry): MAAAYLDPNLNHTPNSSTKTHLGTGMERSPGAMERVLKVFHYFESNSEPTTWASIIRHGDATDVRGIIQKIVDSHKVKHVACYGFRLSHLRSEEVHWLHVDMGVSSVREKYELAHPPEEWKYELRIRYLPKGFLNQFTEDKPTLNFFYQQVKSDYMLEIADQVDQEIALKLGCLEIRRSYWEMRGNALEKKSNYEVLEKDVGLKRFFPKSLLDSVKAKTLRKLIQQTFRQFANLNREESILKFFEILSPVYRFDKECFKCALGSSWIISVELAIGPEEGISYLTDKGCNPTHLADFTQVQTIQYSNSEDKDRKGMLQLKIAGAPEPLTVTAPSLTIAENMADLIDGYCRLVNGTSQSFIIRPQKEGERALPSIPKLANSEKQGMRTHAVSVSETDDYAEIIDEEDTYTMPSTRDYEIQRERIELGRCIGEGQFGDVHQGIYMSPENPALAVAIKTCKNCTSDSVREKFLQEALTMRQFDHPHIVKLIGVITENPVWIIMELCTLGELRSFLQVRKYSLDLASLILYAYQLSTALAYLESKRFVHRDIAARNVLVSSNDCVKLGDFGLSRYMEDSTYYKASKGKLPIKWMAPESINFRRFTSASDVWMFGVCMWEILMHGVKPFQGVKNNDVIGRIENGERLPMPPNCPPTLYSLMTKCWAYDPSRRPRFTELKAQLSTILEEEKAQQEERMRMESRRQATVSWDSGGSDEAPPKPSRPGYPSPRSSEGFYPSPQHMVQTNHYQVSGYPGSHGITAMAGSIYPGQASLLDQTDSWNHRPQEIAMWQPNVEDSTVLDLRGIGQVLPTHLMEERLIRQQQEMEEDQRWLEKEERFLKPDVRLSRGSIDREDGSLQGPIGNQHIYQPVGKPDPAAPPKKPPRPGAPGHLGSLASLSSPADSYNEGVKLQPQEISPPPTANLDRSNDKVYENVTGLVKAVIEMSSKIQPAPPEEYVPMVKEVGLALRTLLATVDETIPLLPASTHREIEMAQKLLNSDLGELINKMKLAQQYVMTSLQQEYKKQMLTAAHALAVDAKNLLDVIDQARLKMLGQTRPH
Conditions: read-out: FAK IC50
pIC50: −log10 of the molar value.
The reader will find reported pIC50 values listed item by item below.

[
  {
    "given-smiles": "COc1ccc(C(F)(F)F)cc1-c1cccn2nc(Nc3ccc4c(c3)CCN(CCS(C)(=O)=O)CC4)nc12",
    "pIC50": 6.24
  },
  {
    "given-smiles": "COc1ncccc1-c1cccn2nc(Nc3ccc(C4CCNCC4)cc3)nc12",
    "pIC50": 5.00
  },
  {
    "given-smiles": "CN(Cc1ccccc1Nc1cccn2nc(Nc3ccc(OCCN4CCCC4)cc3)nc12)S(C)(=O)=O",
    "pIC50": 5.70
  },
  {
    "given-smiles": "CN1CCN(c2ccc(Nc3nc4cccc(-c5cccc(S(C)(=O)=O)c5)n4n3)cc2)CC1",
    "pIC50": 6.23
  },
  {
    "given-smiles": "COc1ccc(F)cc1-c1cccn2nc(Nc3ccc4c(c3)CCN(CC(=O)N(C)C)CC4)nc12",
    "pIC50": 6.16
  },
  {
    "given-smiles": "CN1CCN(Cc2ccc(Nc3nc4cccc(-c5ccc(S(C)(=O)=O)cc5)n4n3)cc2)CC1",
    "pIC50": 6.58
  },
  {
    "given-smiles": "CN1CCN(c2ccc(Nc3nc4cccc(-c5cccc(NS(C)(=O)=O)c5)n4n3)cc2)CC1",
    "pIC50": 6.26
  },
  {
    "given-smiles": "CCN1CCN(c2cccc(Nc3nc4c(-c5ccc(S(C)(=O)=O)cc5)cccn4n3)c2)C(=O)C1",
    "pIC50": 5.00
  },
  {
    "given-smiles": "CN1CCN(c2cccc(Nc3nc4cncc(-c5ccc(S(C)(=O)=O)cc5)n4n3)c2)CC1",
    "pIC50": 6.07
  },
  {
    "given-smiles": "CP(C)(=O)c1ccc(-c2cccn3nc(Nc4cccc(C5CCN(CCS(C)(=O)=O)CC5)c4)nc23)cc1",
    "pIC50": 5.00
  },
  {
    "given-smiles": "COc1cccc(CNc2cccn3nc(Nc4ccncc4)nc23)c1",
    "pIC50": 5.00
  },
  {
    "given-smiles": "CN1CCC(c2ccc(Nc3nc4c(Nc5ccccc5CS(C)(=O)=O)cccn4n3)cc2)CC1",
    "pIC50": 5.70
  },
  {
    "given-smiles": "CCOc1ccc(C(F)(F)F)cc1-c1cccn2nc(Nc3ccc4c(c3)CCN(CCS(C)(=O)=O)CC4)nc12",
    "pIC50": 5.52
  },
  {
    "given-smiles": "CN1CCN(c2ccc(Nc3nc4c(NCc5ccccc5S(C)(=O)=O)cccn4n3)cc2)CC1",
    "pIC50": 6.70
  },
  {
    "given-smiles": "CC(C)S(=O)(=O)c1ccc(-c2cccn3nc(Nc4cccc(N5CCN(C)CC5)c4)nc23)cc1",
    "pIC50": 6.06
  },
  {
    "given-smiles": "COc1ccc(C(F)(F)F)cc1-c1cccn2nc(Nc3ccc(OCCN4CCCC4)cc3)nc12",
    "pIC50": 5.47
  }
]
